Field: pKd. Provide a value for each of the binders that follow.
Target Or System: T1, human Aβ (1-40) peptide (human)
T1 construct: also called Aβ1-40 fibers
Assay Summary: SPR Scatchard, higher affinity (bivalent)
pKd: −log10 of the molar value.

Consider the following items and state reported pKd for each.
1. MS-R #7.11.H1×7.2.L1 IgG1 (antibody, V domains shown, full-length human IgG1; VH entry starts at QLVESGG; also called MAB 11) VH: ELVESGGGLVQPGGSLRLSCAASGFTFSSYAMSWVRQAPGKGLEWVSGINAAGFRTYYADSVKGRFTISRDNSKNTLYLQMNSLRAEDTAVYYCARGKGNTHKPYGYVRYFDVWGQGTLVTVSS VL: DIVLTQSPATLSLSPGERATLSCRASQYVDRTYLAWYQQKPGQAPRLLIYGASSRATGVPARFSGSGSGTDFTLTISSLEPEDFATYYCQQIYSFPHTFGQGTKVEIKR
2. MS-R IgG1 3.6.H5 × 3.6.L2 (antibody, V domains shown, full-length human IgG1; VH entry starts at QLVESGG) VH: ELVESGGGLVQPGGSLRLSCAASGFTFSSYAMSWVRQAPGKGLEWVSAISESGKTKYYADSVKGRFTISRDNSKNTLYLQMNSLRAEDTAVYYCARLTHYARYYRYFDVWGQGTLVTVSS VL: DIVLTQSPATLSLSPGERATLSCRASQFLSRYYLAWYQQKPGQAPRLLIYGASSRATGVPARFSGSGSGTDFTLTISSLEPEDFAVYYCQQTYNYPPTFGQGTKVEIKR
3. MS-R IgG1 7.12.L1 (antibody, V domains shown, full-length human IgG1) VH: QVQLVESGGGLVQPGGSLRLSCAASGFTFSSYGMSWVRQAPGKGLEWVSNISGSGSSTYYADSVKGRFTISRDNSKNTLYLQMNSLRAEDTAVYYCARGKGNTHKPYGYVRYFDVWGQGTLVTVSS VL: DIVLTQSPATLSLSPGERATLSCRASQYVFRRYLAWYQQKPGQAPRLLISGSSNRATGVPARFSGSGSGTDFTLTISSLEPEDFAVYYCLQLYNIPNTFGQGTKVEIKR
4. MS-R IgG1 3.6.H8 × 3.6.L2 (antibody, V domains shown, full-length human IgG1; VH entry starts at QLVESGG) VH: ELVESGGGLVQPGGSLRLSCAASGFTFSSYAMSWVRQAPGKGLEWVSAISEYSKFKYYADSVKGRFTISRDNSKNTLYLQMNSLRAEDTAVYYCARLTHYARYYRYFDVWGQGTLVTVSS VL: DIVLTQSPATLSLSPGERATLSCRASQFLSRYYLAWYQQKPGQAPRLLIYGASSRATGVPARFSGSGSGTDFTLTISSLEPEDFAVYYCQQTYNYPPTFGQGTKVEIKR
5. MS-R IgG1 7.11.H1 × 7.11.L1 (antibody, V domains shown, full-length human IgG1; VH entry starts at QLVESGG) VH: ELVESGGGLVQPGGSLRLSCAASGFTFSSYAMSWVRQAPGKGLEWVSGINAAGFRTYYADSVKGRFTISRDNSKNTLYLQMNSLRAEDTAVYYCARGKGNTHKPYGYVRYFDVWGQGTLVTVSS VL: DIVLTQSPATLSLSPGERATLSCRASQRILRIYLAWYQQKPGQAPRLLIYGASSRATGVPARFSGSGSGTDFTLTISSLEPEDFATYYCQQVYSPPHTFGQGTKVEIKR

9.18 to 9.85
8.99 to 9.70
8.46 to 8.92
9.02 to 9.66
9.15 to 9.96

Consider the following items and state reported pKd for each.
1. MS-R IgG1 7.2.H4 (antibody, V domains shown, full-length human IgG1) VH: QVELVESGGGLVQPGGSLRLSCAASGFTFSSYAMSWVRQAPGKGLEWVSAINSKGSRIYYADSVKGRFTISRDNSKNTLYLQMNSLRAEDTAVYYCARGKGNTHKPYGYVRYFDVWGQGTLVTVSS VL: DIVLTQSPATLSLSPGERATLSCRASQSVSSSYLAWYQQKPGQAPRLLIYGASSRATGVPARFSGSGSGTDFTLTISSLEPEDFATYYCQQIYSFPHTFGQGTKVEIK
2. MS-R IgG1 7.9.H3 (antibody, V domains shown, full-length human IgG1; also called 7.9H3 IgG) VH: QVELVESGGGLVQPGGSLRLSCAASGFTFSSYAMSWVRQAPGKGLEWVSAINYQGNRKYYADSVKGRFTISRDNSKNTLYLQMNSLRAEDTAVYYCARGKGNTHKPYGYVRYFDVWGQGTLVTVSS VL: DIVLTQSPATLSLSPGERATLSCRASQSVSSSYLAWYQQKPGQAPRLLIYGASSRATGVPARFSGSGSGTDFTLTISSLEPEDFATYYCLQIYNMPITFGQGTKVEIK
3. MS-R IgG1 7.4.H2 × 7.2.L1 (antibody, V domains shown, full-length human IgG1; VH entry starts at QLVESGG) VH: ELVESGGGLVQPGGSLRLSCAASGFTFSSYAMSWVRQAPGKGLEWVSAINYNGARIYYADSVKGRFTISRDNSKNTLYLQMNSLRAEDTAVYYCARGKGNTHKPYGYVRYFDVWGQGTLVTVSS VL: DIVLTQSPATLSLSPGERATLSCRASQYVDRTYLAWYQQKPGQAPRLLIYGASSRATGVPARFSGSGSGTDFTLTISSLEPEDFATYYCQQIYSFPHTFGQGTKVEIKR

["9.52 to 10.05", "9.30 to 10.00", "9.20 to 9.92"]

Consider the following items and state reported pKd for each.
1. MSR 7.9.H2 IgG1 (antibody, V domains shown, full-length human IgG1) VH: QVELVESGGGLVQPGGSLRLSCAASGFTFSSYAMSWVRQAPGKGLEWVSAINADGNRKYYADSVKGRFTISRDNSKNTLYLQMNSLRAEDTAVYYCARGKGNTHKPYGYVRYFDVWGQGTLVTVSS VL: DIVLTQSPATLSLSPGERATLSCRASQSVSSSYLAWYQQKPGQAPRLLIYGASSRATGVPARFSGSGSGTDFTLTISSLEPEDFATYYCLQIYNMPITFGQGTKVEIKR
2. MS-R #7.9.H7 IgG1 (antibody, V domains shown, full-length human IgG1; also called MAB 31; MS-Roche IgG #7.9.H7) VH: QVELVESGGGLVQPGGSLRLSCAASGFTFSSYAMSWVRQAPGKGLEWVSAINASGTRTYYADSVKGRFTISRDNSKNTLYLQMNSLRAEDTAVYYCARGKGNTHKPYGYVRYFDVWGQGTLVTVSS VL: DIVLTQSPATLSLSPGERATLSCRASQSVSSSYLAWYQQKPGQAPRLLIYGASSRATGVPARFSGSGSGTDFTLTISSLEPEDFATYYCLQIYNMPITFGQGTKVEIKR

["9.38 to 9.92", "9.16 to 9.60"]
